Each entry below carries its measured IC50, system: UniProt P35968.
Sequence (P35968 20-1356): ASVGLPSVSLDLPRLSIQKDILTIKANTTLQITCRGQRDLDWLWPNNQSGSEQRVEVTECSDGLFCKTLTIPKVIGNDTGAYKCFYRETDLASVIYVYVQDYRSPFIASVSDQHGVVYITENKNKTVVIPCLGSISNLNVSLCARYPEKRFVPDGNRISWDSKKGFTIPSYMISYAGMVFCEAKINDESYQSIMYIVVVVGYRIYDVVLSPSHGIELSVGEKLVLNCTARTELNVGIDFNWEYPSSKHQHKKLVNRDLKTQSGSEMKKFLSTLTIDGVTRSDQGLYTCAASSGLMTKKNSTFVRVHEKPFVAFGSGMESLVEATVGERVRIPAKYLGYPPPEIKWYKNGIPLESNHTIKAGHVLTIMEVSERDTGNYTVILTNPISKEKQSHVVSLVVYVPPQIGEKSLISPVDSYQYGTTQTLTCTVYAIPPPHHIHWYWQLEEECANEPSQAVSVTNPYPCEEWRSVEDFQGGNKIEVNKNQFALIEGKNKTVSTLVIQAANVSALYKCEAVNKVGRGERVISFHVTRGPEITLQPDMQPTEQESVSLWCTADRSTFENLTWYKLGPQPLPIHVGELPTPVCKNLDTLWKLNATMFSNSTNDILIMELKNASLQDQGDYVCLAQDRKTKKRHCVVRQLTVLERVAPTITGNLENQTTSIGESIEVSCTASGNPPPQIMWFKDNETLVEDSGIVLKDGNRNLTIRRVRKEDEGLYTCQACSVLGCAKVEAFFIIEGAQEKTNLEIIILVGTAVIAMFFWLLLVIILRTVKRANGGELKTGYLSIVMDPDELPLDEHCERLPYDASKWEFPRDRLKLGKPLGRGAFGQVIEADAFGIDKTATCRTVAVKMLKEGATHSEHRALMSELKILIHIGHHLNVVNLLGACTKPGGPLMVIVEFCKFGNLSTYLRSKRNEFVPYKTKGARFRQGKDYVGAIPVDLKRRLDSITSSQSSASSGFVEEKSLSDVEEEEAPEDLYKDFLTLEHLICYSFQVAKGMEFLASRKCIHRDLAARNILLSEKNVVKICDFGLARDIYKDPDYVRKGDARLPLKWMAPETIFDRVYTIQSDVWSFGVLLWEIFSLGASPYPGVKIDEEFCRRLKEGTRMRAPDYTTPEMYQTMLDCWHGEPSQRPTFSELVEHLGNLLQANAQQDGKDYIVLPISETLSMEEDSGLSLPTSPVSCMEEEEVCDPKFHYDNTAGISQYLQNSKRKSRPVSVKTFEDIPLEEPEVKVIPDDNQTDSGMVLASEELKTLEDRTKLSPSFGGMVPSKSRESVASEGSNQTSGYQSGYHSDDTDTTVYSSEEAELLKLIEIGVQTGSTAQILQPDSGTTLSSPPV
quantity-name: IC50 (µM)

P. COc1cc2ncnc(Sc3cccc(NC(=S)Nc4ccc(F)cc4)c3)c2cc1OC [Compound 10u]
Q. COc1cc2ncnc(Oc3cccc(NC(=S)Nc4ccc(Br)c(C(F)(F)F)c4)c3)c2cc1OC [Compound 10c]
## Task Looking at P and Q , which one comes out lower in IC50 terms? API: response body contains the label of the selected item.
## Result Q

###

quantity-name: melting point

molecule	data-value
COc1cc2ncnc(Oc3cccc(NC(=S)Nc4cc(C(F)(F)F)cc(C(F)(F)F)c4)c3)c2cc1OC [Compound 10d]	122.8 to 125.6 °C
COc1cc2ncnc(Sc3cccc(NC(=S)Nc4ccc(F)c(C(F)(F)F)c4)c3)c2cc1OC [Compound 10l]	128.4 to 130 °C

The recorded melting point for COc1cc2ncnc(Sc3cccc(NC(=S)Nc4ccc(Cl)cc4Cl)c3)c2cc1OC [Compound 10r] is 172.4 to 174 °C

The recorded melting point for COc1cc2ncnc(Oc3cccc(NC(=S)Nc4ccc(C)cc4)c3)c2cc1OC [Compound 10k] is 138.4 to 140 °C

The recorded melting point for COc1cc2ncnc(Sc3cccc(NC(=S)Nc4ccc(Br)c(C(F)(F)F)c4)c3)c2cc1OC [Compound 10q] is 150.3 to 152 °C

The recorded melting point for COc1cc2ncnc(Sc3cccc(NC(=S)Nc4ccc(Cl)cc4)c3)c2cc1OC [Compound 10t] is 124.8 to 126.1 °C

The recorded melting point for COc1cc2ncnc(Sc3cccc(NC(=S)Nc4ccc(F)cc4)c3)c2cc1OC [Compound 10u] is 152 to 153.2 °C

The recorded melting point for COc1cc2ncnc(Oc3cccc(NC(=S)Nc4ccc(Cl)cc4Cl)c3)c2cc1OC [Compound 10g] is 187.4 to 188.2 °C

The recorded melting point for COc1cc2ncnc(Sc3cccc(NC(=S)Nc4ccc(F)c(F)c4)c3)c2cc1OC [Compound 10s] is 128.2 to 130.4 °C

The recorded melting point for COc1cc2ncnc(Sc3cccc(NC(=S)Nc4ccc(Cl)c(C(F)(F)F)c4)c3)c2cc1OC [Compound 10m] is 162.2 to 164 °C

The recorded melting point for COc1cc2ncnc(Sc3cccc(NC(=S)Nc4cccc(C(F)(F)F)c4)c3)c2cc1OC [Compound 10p] is 127.5 to 131 °C

The recorded melting point for COc1cc2ncnc(Sc3cccc(NC(=S)Nc4cc(C(F)(F)F)cc(C(F)(F)F)c4)c3)c2cc1OC [Compound 10o] is 168.2 to 171 °C
